Measured values drawn from PubChem BioAssay (NCATS) for this set.

Test: qHTS assay for small molecule agonists of the antioxidant response element (ARE) signaling pathway (AID 651741)
Conditions: HepG2 ARE-bla reporter, beta-lactamase FRET ratio, 16 h; series mostly up to 96 µM
Inconclusive results are not listed. Calls of active or inactive are those of the source. Calls follow the shape of the dose curve; as a rule, active = well fitted activation curve with a large enough effect in the signal ratio; inconclusive = small, poorly fitted or top-dose-only effect, or effect the other way, or a change in a side signal; inactive = flat fitted curve, though single readings scatter; the % refers to the signal ratio.
Return exactly one item of active, inactive

A selection of reference data follows.
{"compound": "Nc1ccc(N)c2c1C(=O)c1c(N)ccc(N)c1C2=O", "category_label": "active"}
{"compound": "O=C(O)C(Oc1ccc(Cl)cc1)Oc1ccc(Cl)cc1", "category_label": "inactive"}
{"compound": "CC/C=C/CCCCCCCCCCOC(C)=O", "category_label": "inactive"}
{"compound": "COC(=O)C1CCC(C(=O)OC)CC1 (centres undefined)", "category_label": "inactive"}
{"compound": "CCCC/C=C/CCCCO", "category_label": "inactive"}
{"compound": "Nc1ccc(Nc2ccccc2)cc1", "category_label": "active"}
{"compound": "COC(=O)c1ccccc1C(=O)O", "category_label": "inactive"}
{"compound": "CCCCCCCCCCCCCCC(=O)OC", "category_label": "inactive"}

Query string: Given CCOC(=O)NCCOc1ccc(Oc2ccccc2)cc1 , state the outcome it received in this test.
Result string: active

Query string: Given CCOc1ccc(NC(=O)OC(C)C)cc1OCC , state the outcome it received in this test.
Result string: inactive

Query string: Given O=S(=O)(O)c1cc(S(=O)(=O)O)c2c(N=Nc3ccccc3)c(O)ccc2c1 , state the outcome it received in this test.
Result string: inactive

Query string: Given CCCCN(CCCC)CCCC , state the outcome it received in this test.
Result string: inactive

Query string: Given CC(=O)OC1CCC(C(C)(C)C)CC1 (centres undefined) , state the outcome it received in this test.
Result string: inactive

Query string: Given C/C=C/C=C/CCCCCCCO , state the outcome it received in this test.
Result string: inactive

====

Test: qHTS for Inhibitors of Ubiquitin-specific Protease USP2a Using CHOP2 as the Reporter: Cytotox Assay (AID 652170); also: nearly all actives have a fitted effect of over 70% in size
Conditions: HCT116 viability, CellTiter-Glo luminescence, 72 h; series mostly up to 46.1 µM
Records with an inconclusive call do not appear. The source made the active and inactive calls. The call rests on the fitted dose curve; in most records, active means well fitted cell-killing curve with a large enough effect; inconclusive means small, poorly fitted or top-dose-only effect, or effect the other way; inactive means flat fitted curve, though single readings scatter.
Return exactly one item of active, inactive

{"entry_smiles": "O=C(Nc1nc(-c2ccccc2)cs1)c1ccncc1NS(=O)(=O)c1cccs1", "category_label": "inactive"}
{"entry_smiles": "O=C(Nc1nc(-c2ccccc2)cs1)c1ccncc1NS(=O)(=O)c1ccc(F)cc1", "category_label": "inactive"}
{"entry_smiles": "COc1cccc(S(=O)(=O)Nc2cnccc2C(=O)Nc2nc(-c3ccccc3)cs2)c1", "category_label": "active"}
{"entry_smiles": "Cc1ccc(S(=O)(=O)Nc2cc(Cl)c(Cl)cc2C(=O)Nc2nc(-c3ccccc3)cs2)cc1", "category_label": "active"}
{"entry_smiles": "COc1ccc(S(=O)(=O)Nc2cnccc2C(=O)Nc2nc(-c3ccccc3)cs2)cc1", "category_label": "inactive"}

Query string: Given Cc1ccc(-c2cc(C(=O)Nc3ccc(S(=O)(=O)O)cc3)c3ccccc3n2)cc1C , state the outcome it received in this test.
Result string: inactive

Query string: Given Cc1ccc(S(=O)(=O)Nc2cnccc2C(=O)Nc2nc(-c3cccc(F)c3)cs2)cc1 , state the outcome it received in this test.
Result string: active

Query string: Given Cc1ccc(-c2cc(C(=O)Nc3ccc(S(=O)(=O)Nc4cccnc4)cc3)c3ccccc3n2)cc1C , state the outcome it received in this test.
Result string: inactive

Query string: Given Cc1ccc(S(=O)(=O)Nc2cnccc2C(=O)Nc2nc(-c3ccccc3)cs2)cc1 , state the outcome it received in this test.
Result string: active

Query string: Given N#Cc1ccc(S(=O)(=O)Nc2cnccc2C(=O)Nc2nc(-c3ccccc3)cs2)cc1 , state the outcome it received in this test.
Result string: inactive

Query string: Given O=C(Nc1nc(-c2ccccc2)cs1)c1ccncc1NS(=O)(=O)c1ccc(C(F)(F)F)cc1 , state the outcome it received in this test.
Result string: inactive

Query string: Given O=C1CCCc2cc(S(=O)(=O)Nc3cnccc3C(=O)Nc3nc(-c4ccccc4)cs3)ccc2N1 , state the outcome it received in this test.
Result string: inactive

Query string: Given Cc1ccc(S(=O)(=O)Nc2ccc(Cl)c(C(=O)Nc3nc(-c4ccccc4)cs3)c2)cc1 , state the outcome it received in this test.
Result string: inactive

Query string: Given O=C(Nc1nc(-c2ccccc2)cs1)c1ccncc1NS(=O)(=O)c1c(F)cc(F)cc1F , state the outcome it received in this test.
Result string: inactive

Query string: Given COc1ccccc1S(=O)(=O)Nc1cnccc1C(=O)Nc1nc(-c2ccccc2)cs1 , state the outcome it received in this test.
Result string: inactive

Query string: Given O=C(Nc1nc(-c2ccccc2)cs1)c1ccncc1NS(=O)(=O)c1ccc(F)cc1Cl , state the outcome it received in this test.
Result string: inactive

Query string: Given O=C(Nc1ccc(S(=O)(=O)Nc2nccs2)cc1)c1ccnc2ccccc12 , state the outcome it received in this test.
Result string: inactive

Query string: Given O=C(C[C@H]1CC[C@@H](C(=O)Nc2ccc(S(=O)(=O)Nc3nccs3)cc2)C1)c1ccccc1 , state the outcome it received in this test.
Result string: inactive

Query string: Given Cc1ccc(S(=O)(=O)Nc2cnccc2C(=O)Nc2nc(-c3nc4ccccc4s3)cs2)cc1 , state the outcome it received in this test.
Result string: inactive
